- tgt: IGF1 receptor (Homo sapiens, UniProt P08069)
- Construct: MCF7 human breast cancer cells expressing IGF1 receptor; endogenous in cells
- Sequence (P08069 741-1367 limits assumed): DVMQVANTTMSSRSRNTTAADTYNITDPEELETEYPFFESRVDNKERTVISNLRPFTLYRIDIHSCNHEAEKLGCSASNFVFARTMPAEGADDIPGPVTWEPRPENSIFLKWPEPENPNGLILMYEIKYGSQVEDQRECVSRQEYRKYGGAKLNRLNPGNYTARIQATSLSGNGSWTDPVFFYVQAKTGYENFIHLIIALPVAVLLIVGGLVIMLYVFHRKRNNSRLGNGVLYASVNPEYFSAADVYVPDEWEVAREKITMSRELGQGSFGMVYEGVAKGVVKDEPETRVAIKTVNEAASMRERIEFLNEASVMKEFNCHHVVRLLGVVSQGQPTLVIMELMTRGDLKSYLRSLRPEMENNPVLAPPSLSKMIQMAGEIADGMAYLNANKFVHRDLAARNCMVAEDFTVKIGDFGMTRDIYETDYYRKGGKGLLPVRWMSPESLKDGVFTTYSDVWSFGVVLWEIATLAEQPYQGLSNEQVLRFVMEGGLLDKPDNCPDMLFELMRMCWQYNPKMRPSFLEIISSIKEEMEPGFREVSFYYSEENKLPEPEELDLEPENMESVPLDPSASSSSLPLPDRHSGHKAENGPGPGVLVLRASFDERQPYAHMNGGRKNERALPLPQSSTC
- Sequence (P08069 31-736 partner limits assumed): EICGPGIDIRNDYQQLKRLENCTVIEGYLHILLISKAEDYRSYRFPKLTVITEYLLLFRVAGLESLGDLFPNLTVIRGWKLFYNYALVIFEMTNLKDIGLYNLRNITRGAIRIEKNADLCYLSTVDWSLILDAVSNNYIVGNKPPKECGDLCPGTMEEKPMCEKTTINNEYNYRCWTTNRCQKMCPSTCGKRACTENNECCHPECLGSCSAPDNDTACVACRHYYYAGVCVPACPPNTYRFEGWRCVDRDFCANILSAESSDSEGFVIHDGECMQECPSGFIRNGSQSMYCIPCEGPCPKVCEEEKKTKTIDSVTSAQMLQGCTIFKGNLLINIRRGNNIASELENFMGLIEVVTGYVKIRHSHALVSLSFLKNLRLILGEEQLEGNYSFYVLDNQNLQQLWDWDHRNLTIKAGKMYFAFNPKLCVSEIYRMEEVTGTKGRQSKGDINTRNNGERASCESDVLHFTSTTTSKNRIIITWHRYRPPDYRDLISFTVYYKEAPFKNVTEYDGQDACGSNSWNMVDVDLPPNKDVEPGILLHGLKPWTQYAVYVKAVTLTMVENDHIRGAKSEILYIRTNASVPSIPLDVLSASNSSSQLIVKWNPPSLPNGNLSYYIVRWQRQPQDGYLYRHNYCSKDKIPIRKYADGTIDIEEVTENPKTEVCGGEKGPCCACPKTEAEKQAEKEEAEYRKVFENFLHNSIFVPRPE
- procedureSummary: ELISA-based assay of IGF1 receptor autophosphorylation inhibition in cells
- measurementContext: IGF1R phosphorylation inhibition in MCF7 cells
pIC50: −log10 of the molar value.
experimentalEndpoint: pIC50

// known answers, use as guide
>>> recordedmeasurement("CN1CCC(N2C(=O)c3cc4nc(-c5c(NC[C@@H](O)COc6cccc(C(F)(F)F)c6)cc[nH]c5=O)[nH]c4cc3C2=O)CC1 [compound 97]")
"5.30 to 6.30"
>>> recordedmeasurement("CN1CCC(N2C(=O)c3cc4nc(-c5c(NCC(O)COc6ccccc6)cc[nH]c5=O)[nH]c4cc3C2=O)CC1 (stereo not shown) [compound 23]")
"4.82 to 5.30"

Request: Record lookup: for IGF1 receptor (Homo sapiens, UniProt P08069), what pIC50 belongs to Cc1ccc(OC[C@H](O)CNc2cc[nH]c(=O)c2-c2nc3cc4c(cc3[nH]2)C(=O)N(C2CCNCC2)C4=O)c(C)c1 [compound 142] ?
Response: > 6.30

Request: Record lookup: for IGF1 receptor (Homo sapiens, UniProt P08069), what pIC50 belongs to CN1CCN(CCN2C(=O)c3cc4nc(-c5c(NC[C@@H](O)c6cccc(Cl)c6)cc[nH]c5=O)[nH]c4cc3C2=O)CC1 [compound 20] ?
Response: < 4.82

Request: Record lookup: for IGF1 receptor (Homo sapiens, UniProt P08069), what pIC50 belongs to CCN1CCC(N2Cc3cc4nc(-c5c(NC[C@@H](O)COc6ccc(C)cc6C)cc[nH]c5=O)[nH]c4cc3C2=O)CC1 [compound 144] ?
Response: 5.30 to 6.30

Request: Record lookup: for IGF1 receptor (Homo sapiens, UniProt P08069), what pIC50 belongs to O=C1c2cc3nc(-c4c(NC[C@@H](O)c5cccc(Cl)c5)cc[nH]c4=O)[nH]c3cc2C(=O)N1C[C@@H]1CCCO1 [compound 29] ?
Response: < 4.82

Request: Record lookup: for IGF1 receptor (Homo sapiens, UniProt P08069), what pIC50 belongs to Cc1ccc(OC[C@@H](O)CNc2cc[nH]c(=O)c2-c2nc3cc4c(cc3[nH]2)C(=O)N([C@H]2CCN(C)C2)C4=O)c(C)c1 [compound 106] ?
Response: 4.82 to 5.30

Request: Record lookup: for IGF1 receptor (Homo sapiens, UniProt P08069), what pIC50 belongs to Cc1cc(C)n(C[C@H](O)CNc2cc[nH]c(=O)c2-c2nc3cc4c(cc3[nH]2)C(=O)N(C2CCN(C)CC2)C4=O)n1 [compound 92] ?
Response: 5.30 to 6.30

Request: Record lookup: for IGF1 receptor (Homo sapiens, UniProt P08069), what pIC50 belongs to CN1CCC(N2C(=O)c3cc4nc(-c5c(NC[C@@H](O)COc6cccc(-c7ccccc7)c6)cc[nH]c5=O)[nH]c4cc3C2=O)CC1 [compound 89] ?
Response: 5.30 to 6.30

Request: Record lookup: for IGF1 receptor (Homo sapiens, UniProt P08069), what pIC50 belongs to Cc1cc(C)c(OC[C@H](O)CNc2cc[nH]c(=O)c2-c2nc3cc4c(cc3[nH]2)C(=O)N(C2CCN(C)CC2)C4=O)cc1Cl [compound 108] ?
Response: 4.82 to 5.30
